Molecular target: BKV VP1 VLP (BK virus (BKV), AS strain) (UniProt P14996)
Sequence (P14996 whole entry): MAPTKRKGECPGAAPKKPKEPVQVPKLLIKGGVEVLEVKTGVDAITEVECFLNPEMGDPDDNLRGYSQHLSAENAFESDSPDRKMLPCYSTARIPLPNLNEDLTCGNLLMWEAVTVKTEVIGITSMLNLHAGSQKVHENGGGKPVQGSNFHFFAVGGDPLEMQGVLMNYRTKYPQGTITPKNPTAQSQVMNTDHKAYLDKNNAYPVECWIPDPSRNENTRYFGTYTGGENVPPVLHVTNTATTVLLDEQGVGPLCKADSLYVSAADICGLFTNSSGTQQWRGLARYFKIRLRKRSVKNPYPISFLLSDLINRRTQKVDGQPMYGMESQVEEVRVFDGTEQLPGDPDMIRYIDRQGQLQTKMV
Test: direct ELISA
Measured attribute: EC50 (nM)
One number for each entry, in nM.

The recorded EC50 for entry NI-307.24F3 (antibody, V domains shown) VH: QVQLQESGGGVVQPGRSLRLSCAASGFSFNRYGMHWVRQAPGKGLEWLAVISNDGVNTHYADSVKGRFTISRDNSKSTLYLQASSLRVEDTAVYYCAGYYYGSGTSLFFYWGQGTLVTVSS VL: EIVLTQSPDSLAVSLGERATINCKSSQTVLYSSNNQNYLAWYQQKPGQPPKLLLYWASTRESGVPDRFSGSGSGTDFTLTISSLQPEDVAVYYCQQYYTAPYTFGQGTKVEIK equals 28.8

EC50 in this record for NI-307.26E10 (antibody, V domains shown) VH: EVQLVESGGGLVLPGGSLRLSCAVSGFTVRNEYMRWARQAPGRGLEWVSVIYRDGQTHHADTVKGRFDVSKDTSKNTMYLQMHNLRVDDTAIYYCARGHYGPWGQGTLVTVSS VL: DIQMTQSPSTLPASVGDRVTITCRASQSINNWLAWYQQKPGKAPNLLIYDASNLETGVPSRFSGSGSGTEFTLTISSLQPDDFATYYCQQYNSHSHTWTFGQGTKVEIK : 0.74

Notebook: NI-307.1E1 (antibody, V domains shown) VH: EVQLVESGGGLVKPGGSLRLSCAASGFIFSDAWMNWVRQAPGKGLEWVGHIKSRPAGGTTEYAAPVKGRFTISRDDSTDTLYLQMNNLKAEDTAVYYCSTGHYGVYGLGTLVTVSS VL: DIQMTQSPSTLSASVGDRVTITCRASQSIRDYLAWYQQKPGKAPKLLIYDGSILEGGVPSRFSGSVSGTDFTLTISSLQSDDFATYYCQQYTSYSSWTFGQGTKVEIK , EC50 read as 11

Next:
Form: binder = NI-307.24C6 (antibody, V domains shown) VH: QLQLQESGPGLVKPSGTLSLICVVSGSSIRSNIWWWNWVRQSPGKGLEWIGEIYHSGSTNYSPSLKSRVTMSVDNSKNQFSLKMSSVTAADTAVYFCAINTRTSISGVLYDTFDVWGQGTMVTVSS VL: EIVLTQSPATLSLSSGERATLSCRASQSVSGYLAWYQQKPGQAPRLLIYDGSNRATGIPARFSGSGSGTDFTLTISSLEPEDFAVYYCQHRSNWPMYTFGQGTKLEIK ; EC50 = 0.396
